Biological target: Factor X, P00742
Sequence (P00742 whole entry, looked up): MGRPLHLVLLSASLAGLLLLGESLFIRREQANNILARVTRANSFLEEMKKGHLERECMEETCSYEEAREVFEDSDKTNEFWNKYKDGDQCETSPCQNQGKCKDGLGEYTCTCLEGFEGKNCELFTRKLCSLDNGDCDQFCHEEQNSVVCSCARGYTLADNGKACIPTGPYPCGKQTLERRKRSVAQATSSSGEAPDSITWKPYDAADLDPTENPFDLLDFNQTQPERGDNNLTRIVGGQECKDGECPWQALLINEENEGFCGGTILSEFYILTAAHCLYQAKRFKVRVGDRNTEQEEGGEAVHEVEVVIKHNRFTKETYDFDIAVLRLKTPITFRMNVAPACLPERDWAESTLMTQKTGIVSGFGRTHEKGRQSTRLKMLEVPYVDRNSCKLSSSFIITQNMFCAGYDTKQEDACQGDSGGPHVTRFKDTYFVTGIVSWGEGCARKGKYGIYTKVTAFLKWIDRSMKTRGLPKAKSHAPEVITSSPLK
readoutName: kcat/KM (M⁻¹ s⁻¹)
Numbers only, in M⁻¹ s⁻¹.

Example entries and their recorded answers appear below.
# protein, numericValue
measured = [
    ("FIXa-K228N/R338E/R403E (mature FIX numbering) (protein) chain 1: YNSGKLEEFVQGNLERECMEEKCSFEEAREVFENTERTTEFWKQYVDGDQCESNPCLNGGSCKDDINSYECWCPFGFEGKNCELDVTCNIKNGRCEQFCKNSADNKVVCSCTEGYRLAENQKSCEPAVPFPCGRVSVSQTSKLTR chain 2: VVGGEDAKPGQFPWQVVLNGKVDAFCGGSIVNEKWIVTAAHCVETGVNITVVAGEHNIEETEHTEQKRNVIRIIPHHNYNAAINKYNHDIALLELDEPLVLNSYVTPICIADKEYTNIFLKFGSGYVSGWGRVFHKGRSALVLQYLRVPLVDRATCLESTKFTIYNNMFCAGFHEGGRDSCQGDSGGPHVTEVEGTSFLTGIISWGEECAMKGKYGIYTKVSEYVNWIKEKTKLT", "4.8e+07"),
    ("FIXa Y155F/K228N/K247N/N249S (protein) chain 1: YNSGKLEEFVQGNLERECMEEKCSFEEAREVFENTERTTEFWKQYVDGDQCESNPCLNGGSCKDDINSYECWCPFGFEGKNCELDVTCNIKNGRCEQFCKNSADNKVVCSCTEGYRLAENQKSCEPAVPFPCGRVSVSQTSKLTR chain 2: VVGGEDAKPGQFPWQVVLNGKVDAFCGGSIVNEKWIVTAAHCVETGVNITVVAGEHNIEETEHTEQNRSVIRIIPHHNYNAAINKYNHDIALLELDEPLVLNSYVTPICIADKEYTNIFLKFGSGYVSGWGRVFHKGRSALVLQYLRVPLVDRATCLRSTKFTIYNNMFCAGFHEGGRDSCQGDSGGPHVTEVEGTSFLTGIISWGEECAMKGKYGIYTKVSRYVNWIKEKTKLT", "5.3e+07"),
]

Record kcat/KM per entry; entries follow.
1. FIXa R318Y/R338E/T343R/R403E/E410N (protein) chain 1: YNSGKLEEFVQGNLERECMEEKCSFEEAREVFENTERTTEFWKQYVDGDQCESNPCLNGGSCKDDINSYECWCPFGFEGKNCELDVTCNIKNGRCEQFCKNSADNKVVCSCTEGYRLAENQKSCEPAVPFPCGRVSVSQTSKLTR chain 2: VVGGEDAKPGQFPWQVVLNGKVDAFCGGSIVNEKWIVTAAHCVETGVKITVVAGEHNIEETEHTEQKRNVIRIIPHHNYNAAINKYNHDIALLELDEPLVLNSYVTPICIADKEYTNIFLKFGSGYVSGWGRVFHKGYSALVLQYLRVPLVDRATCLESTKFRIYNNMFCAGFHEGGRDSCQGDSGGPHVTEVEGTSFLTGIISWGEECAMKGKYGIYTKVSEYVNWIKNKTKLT
2. FIXa D104N/K106S/N260S/R318Y/R338E/R403E/E410N (protein) chain 1: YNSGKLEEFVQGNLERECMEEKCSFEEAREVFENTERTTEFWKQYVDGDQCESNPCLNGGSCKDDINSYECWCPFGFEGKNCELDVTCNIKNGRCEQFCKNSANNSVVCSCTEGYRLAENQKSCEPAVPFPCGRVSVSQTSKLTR chain 2: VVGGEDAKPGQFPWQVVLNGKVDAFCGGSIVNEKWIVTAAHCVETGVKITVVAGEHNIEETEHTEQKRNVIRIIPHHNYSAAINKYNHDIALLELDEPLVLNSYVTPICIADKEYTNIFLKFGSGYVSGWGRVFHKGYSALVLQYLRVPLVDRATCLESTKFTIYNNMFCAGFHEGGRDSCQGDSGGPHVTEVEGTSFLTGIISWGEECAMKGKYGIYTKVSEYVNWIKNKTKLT

Reply |
1. 4.2e+08
2. 8.8e+07
